Biological target: IRE1a (Homo sapiens)
Sequence (O75460 19-977): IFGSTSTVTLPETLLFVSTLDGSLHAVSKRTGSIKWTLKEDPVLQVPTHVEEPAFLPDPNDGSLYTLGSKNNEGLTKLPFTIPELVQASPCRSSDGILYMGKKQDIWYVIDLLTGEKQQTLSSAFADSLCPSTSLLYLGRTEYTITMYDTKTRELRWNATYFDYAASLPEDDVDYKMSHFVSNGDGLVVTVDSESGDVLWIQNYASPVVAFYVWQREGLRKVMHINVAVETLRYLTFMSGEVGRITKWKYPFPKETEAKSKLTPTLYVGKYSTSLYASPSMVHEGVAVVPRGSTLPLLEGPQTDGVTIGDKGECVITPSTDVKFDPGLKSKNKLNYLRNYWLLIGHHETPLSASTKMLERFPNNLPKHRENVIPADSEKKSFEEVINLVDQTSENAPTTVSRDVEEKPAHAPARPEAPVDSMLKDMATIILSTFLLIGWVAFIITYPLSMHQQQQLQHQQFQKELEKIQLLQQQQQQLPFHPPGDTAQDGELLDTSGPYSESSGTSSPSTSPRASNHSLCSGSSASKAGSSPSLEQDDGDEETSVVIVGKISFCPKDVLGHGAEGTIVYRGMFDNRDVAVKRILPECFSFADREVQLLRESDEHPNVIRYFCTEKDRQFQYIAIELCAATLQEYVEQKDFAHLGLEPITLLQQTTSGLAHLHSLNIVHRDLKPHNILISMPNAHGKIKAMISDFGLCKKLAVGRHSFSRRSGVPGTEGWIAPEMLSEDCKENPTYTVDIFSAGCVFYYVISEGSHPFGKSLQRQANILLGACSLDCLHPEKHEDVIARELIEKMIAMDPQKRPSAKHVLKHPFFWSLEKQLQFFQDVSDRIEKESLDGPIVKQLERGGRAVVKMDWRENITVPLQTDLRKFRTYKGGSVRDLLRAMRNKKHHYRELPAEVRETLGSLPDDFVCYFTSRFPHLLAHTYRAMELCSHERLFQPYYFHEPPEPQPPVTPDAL
Assay: IRE1a Endoribonuclease Nanoluciferase Assay (XBP1 luciferase reporter in 293T cells)
Settings: XBP1 nanoluciferase reporter in 293T cells, ER stressor; tested as the salt named
pEC50: −log10 of the molar value.
Exercise: state measured pEC50 for each of the compounds provided.

Assay IRE1a (Homo sapiens), sample CCc1cc(-c2ccc(NS(=O)(=O)c3ccccc3Cl)nn2)cc2cnc(N[C@H]3CC[C@H](N(C)C)CC3)nc12 , pEC50 read: > 8.30

Lab note: each compound below needs its pEC50 filled in.
1. CCc1c(F)c(-c2cc(F)c(NS(=O)(=O)c3ccccc3Cl)nc2C)cc2cnc(N[C@H]3CC[C@H](N(C)C)CC3)nc12
2. O=S(=O)(Nc1ccc(-c2ccc3nc(N[C@H]4CCCNC4)ncc3c2)cc1F)c1ccccc1Cl
3. CCc1nc(NS(=O)(=O)c2ccccc2Cl)ccc1-c1cc(CC)c2nc(N[C@H]3CC[C@H](N(C)C)CC3)ncc2c1
4. COc1nc(NS(=O)(=O)c2ccccc2Cl)ccc1-c1cc(F)c2nc(N[C@H]3CC[C@H](N(C)C)CC3)ncc2c1
5. CCc1cc(-c2ccc(NS(=O)(=O)c3ccccc3C)nc2OC)cc2cnc(NC3CCC(NC)CC3)nc12 (stereo not drawn)

Result block:
1: > 8.30; 2: 7.30 to 8.30; 3: > 8.30; 4: > 8.30; 5: > 8.30
